system: HOP-92 NSCLC; test: NCI tumour cell line growth inhibition, 48 h; in the data active = GI50 below about 0.43 µM; inactive = the rest
Lab note: assign the record to one of 1.0 for active, 0.0 for inactive

CC[C@@]1(O)C(=O)OCc2c1cc1n(c2=O)Cc2cc3c(N)c(OC)ccc3nc2-1; 1.0
O=[N+]([O-])c1cc2c(ccc3ccccc32)o1; 1.0
COc1cccc2c1C(=O)c1c(O)c3c(c(O)c1C2=O)C[C@@](O)(C(=O)CO)C[C@@H]3OC1CC2C(OCN2CN2COC3C(C)OC(O[C@H]4C[C@](O)(C(=O)CO)Cc5c(O)c6c(c(O)c54)C(=O)c4c(OC)cccc4C6=O)CC32)C(C)O1 (stereo not given in full); 1.0
C=CC(=O)N1CCN(c2nc(OC[C@@H]3CCCN3C)nc3c(F)c(-c4nc(N)cc(C)c4C(F)(F)F)c(Cl)cc23)[C@@H](C)C1; 0.0

In the following, a different compound is considered.
Identify the outcome logged in this assay for the compound shown: O=C1C=CC(=O)N1c1ccc2ccccc2c1 0.0

Reference for the values: PubChem BioAssay (NCI)
